target: UniProt Q14164
Sequence (Q14164 whole entry): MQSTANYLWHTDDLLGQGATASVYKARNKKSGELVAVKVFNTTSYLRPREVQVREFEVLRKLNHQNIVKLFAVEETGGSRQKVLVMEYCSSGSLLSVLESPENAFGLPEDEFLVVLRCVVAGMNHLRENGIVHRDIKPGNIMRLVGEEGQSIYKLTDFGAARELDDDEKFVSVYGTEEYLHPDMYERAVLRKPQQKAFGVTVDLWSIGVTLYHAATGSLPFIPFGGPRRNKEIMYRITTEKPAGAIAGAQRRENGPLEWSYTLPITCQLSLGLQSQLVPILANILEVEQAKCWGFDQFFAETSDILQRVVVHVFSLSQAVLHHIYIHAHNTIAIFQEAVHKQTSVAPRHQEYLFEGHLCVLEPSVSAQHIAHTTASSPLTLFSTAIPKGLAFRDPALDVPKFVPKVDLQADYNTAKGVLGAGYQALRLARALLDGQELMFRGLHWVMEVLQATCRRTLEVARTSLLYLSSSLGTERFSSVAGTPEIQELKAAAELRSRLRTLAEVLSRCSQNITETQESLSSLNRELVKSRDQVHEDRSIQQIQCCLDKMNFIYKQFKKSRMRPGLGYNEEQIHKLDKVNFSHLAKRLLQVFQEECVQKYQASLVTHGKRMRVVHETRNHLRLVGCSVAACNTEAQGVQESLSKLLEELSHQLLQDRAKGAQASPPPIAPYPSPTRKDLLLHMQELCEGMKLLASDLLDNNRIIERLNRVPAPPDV
test method notes: IKKε TR-FRET enzymatic assay
Type: biochemical
setup conditions: TR-FRET, 2×Km ATP; geometric mean of minimum four determinations; read-out: IKKe IC50
endpoint: IC50 (nM)
Reply with just the number (in nM).

Study these solved cases before continuing.
Reported IC50 for COCC(=O)N1CC[C@H](Oc2ccc(-c3ncnc(Nc4ccc(N5CCN(C6COC6)CC5)cc4)n3)cc2C#N)[C@H](F)C1 : what is it?
2

// query: Cc1cc(Nc2ncnc(-c3ccc(O[C@H]4CCN(C(=O)[C@@H](O)CO)C[C@H]4F)c(C#N)c3)n2)cnc1N1CCN(C2COC2)CC1
1

Continue with N#CCC(=O)N1CC[C@H](Oc2ccc(-c3ncnc(Nc4ccc(N5CCO[C@@H](CO)C5)cc4)n3)cc2C#N)[C@H](F)C1
4

Same lookup for CN1C(=O)CC[C@H]1C(=O)N1CC[C@H](Oc2ccc(-c3ncnc(Nc4ccc(N5CCN(C6COC6)CC5)cc4)n3)cc2C#N)[C@H](F)C1 , please.
165

How about this compound: N#Cc1cc(-c2ncnc(Nc3ccc(N4CCN(C5COC5)CC4)cc3)n2)ccc1O[C@H]1CCN(C(=O)[C@@H]2CNC(=O)C2)C[C@H]1F
96

Now look at this entry.
Entry N#Cc1cc(-c2ncnc(Nc3ccc(N4CCN(C5COC5)CC4)cc3)n2)ccc1O[C@H]1CCN(C(=O)N2CCCC2)C[C@H]1F : reported IC50 = ?
12
